Target: panel of 255 wild-type kinases (Homo sapiens, UniProt Q96KB5)
Sequence (Q96KB5 1-322): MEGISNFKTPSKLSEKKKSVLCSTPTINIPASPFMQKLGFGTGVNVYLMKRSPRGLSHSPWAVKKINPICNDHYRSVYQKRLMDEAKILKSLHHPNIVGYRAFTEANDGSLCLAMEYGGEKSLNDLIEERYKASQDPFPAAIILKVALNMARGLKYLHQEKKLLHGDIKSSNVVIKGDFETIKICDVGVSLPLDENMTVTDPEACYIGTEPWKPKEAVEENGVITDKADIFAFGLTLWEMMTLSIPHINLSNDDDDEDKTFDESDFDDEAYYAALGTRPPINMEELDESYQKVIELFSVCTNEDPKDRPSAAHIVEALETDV
Assay: Kinase panel profiling at 1 µmol/L (MSA or IMAP), percentage inhibition
Format: biochemical
Conditions: kinase PBK; 1 µmol/L single concentration; read-out: %-inhibition at 1 µmol/L, PBK
// inhibition at 1 µM lookup, one value per entry
Number in %, nothing else.

Please review the following examples before continuing.
query: inhibition at 1 µM for Cn1cnc2c(F)c(Nc3ccc(Br)cc3F)c(C(=O)NOCCO)cc21 ?
result: 0.203

query: Same again, this time with Cn1cc(-c2cc3c(N4CCN(c5ncc([C@@](C)(N)c6ccc(F)cc6)cn5)CC4)ncnn3c2)cn1
result: -3

query: Record: Cc1cc(Nc2ncnc3ccc(NC4=NC(C)(C)CO4)cc23)ccc1Oc1ccn2ncnc2c1
result: 1.21

query: CCN1CCN(c2ccc(Nc3cc(N(C)C(=O)Nc4c(Cl)c(OC)cc(OC)c4Cl)ncn3)cc2)CC1 ?
result: -1.71

Further cases:
query: Need inhibition at 1 µM of Cn1cnc2c(F)c(Nc3ccc(Br)cc3Cl)c(C(=O)NOCCO)cc21 , thanks.
result: -3

query: Also COc1ccc(CN2C3CC2CN(c2ccc(-c4cc(OCC(C)(C)O)cn5ncc(C#N)c45)cn2)C3)cn1 ?
result: -7

query: Queued: FC(F)(F)c1ccc(CNc2ccc(Cc3c[nH]c4ncc(Cl)cc34)cn2)cn1
result: -1.68

query: Moving on to Cc1nc(NC(=O)N2CCC[C@H]2C(N)=O)sc1-c1ccnc(C(C)(C)C(F)(F)F)c1
result: -1.24

Origin of measurements: paper PMC9516332
